Would you kindly list Percent Effect for each of these molecules?
Target: Aspartate--tRNA(Asp/Asn) ligase (Mycobacterium tuberculosis (strain ATCC 25618 / H37Rv)) (UniProt P9WFW3)
Sequence (whole entry): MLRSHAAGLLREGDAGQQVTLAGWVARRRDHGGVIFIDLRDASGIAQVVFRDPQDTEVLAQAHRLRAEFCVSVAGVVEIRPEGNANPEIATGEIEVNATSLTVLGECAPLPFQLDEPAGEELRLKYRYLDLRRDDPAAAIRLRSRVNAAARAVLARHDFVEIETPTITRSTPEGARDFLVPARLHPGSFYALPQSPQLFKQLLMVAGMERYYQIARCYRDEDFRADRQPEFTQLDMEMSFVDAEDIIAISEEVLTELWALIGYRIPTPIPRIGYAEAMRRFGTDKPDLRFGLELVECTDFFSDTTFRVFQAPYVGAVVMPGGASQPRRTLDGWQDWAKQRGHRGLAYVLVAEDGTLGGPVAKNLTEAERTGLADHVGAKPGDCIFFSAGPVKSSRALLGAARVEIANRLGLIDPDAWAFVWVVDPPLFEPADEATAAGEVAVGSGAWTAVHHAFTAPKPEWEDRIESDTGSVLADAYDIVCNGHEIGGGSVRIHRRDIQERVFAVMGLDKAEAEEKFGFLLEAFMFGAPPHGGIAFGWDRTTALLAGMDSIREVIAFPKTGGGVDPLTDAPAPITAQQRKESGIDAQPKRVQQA
Experiment: Assay for Asp RNA synthetase-1 from Mycobacterium tuberculosis
Type: functional
Design: scale not given: in the data most compounds retested in dose-response had high values
Settings: 30 µM
Give just the numeric value; % need not be written.

Input: Need Percent Effect of Cc1nnc(CN2CCCC(c3cc(C(N)=O)[nH]n3)C2)o1 (centres undefined) , thanks.
Output: -2.96

Input: Need Percent Effect of CC(C)c1nc(C2CCCN2CC(=O)N2CCc3ccccc32)no1 (centres undefined) , thanks.
Output: 1.52

Input: Need Percent Effect of OC(CN(Cc1ccccc1)Cc1ccncc1)c1cccs1 (centres undefined) , thanks.
Output: -1.23

Input: Need Percent Effect of Cc1cc(C2CCCN2Cc2ccn(C)c(=O)c2)no1 (centres undefined) , thanks.
Output: -1.63

Input: Need Percent Effect of "O=C(c1cscn1)N1CCC2(CCN(Cc3cccs3)CC2)C1" , thanks.
Output: -4.17

Input: Need Percent Effect of "CCn1nc(C)c2ccn(CC(=O)NC3CCCC3)c(=O)c21" , thanks.
Output: 4.68

Input: Need Percent Effect of "Fc1ccccc1CN1C[C@@H](OCc2ccncc2)[C@H]2OCCC[C@H]21" , thanks.
Output: 2.94

Input: Need Percent Effect of Cc1nc(CN2CCCC2c2ccsc2)nc2ccccc12 (centres undefined) , thanks.
Output: -2.75

Input: Need Percent Effect of "CCC1=N[C@@]2(CC[C@@H]3CN(Cc4ccc(Cl)cc4)C[C@@H]32)C(=O)N1" , thanks.
Output: 0.626

Input: Need Percent Effect of CC(C)(C)n1ncc2c1NC(=O)CC2c1ccccc1 (centres undefined) , thanks.
Output: -5

Input: Need Percent Effect of CC(C)n1ncc2c1NC(=O)CC21C(=O)Nc2c(Cl)cc(Cl)cc21 (centres undefined) , thanks.
Output: 0.842

Input: Need Percent Effect of CN(CCc1cccs1)C1CCCN(Cc2noc(C3CC3)n2)C1 (centres undefined) , thanks.
Output: -1.53

Input: Need Percent Effect of "CNS(=O)(=O)Cc1ccc(CNC(=O)Nc2cn[nH]c2)cc1" , thanks.
Output: -0.228

Input: Need Percent Effect of c1coc(-c2noc(CN3CCCC(Cn4cncn4)C3)n2)c1 (centres undefined) , thanks.
Output: -6.28

Input: Need Percent Effect of O=C1NCCCCC1Sc1nnc(C2CC2)n1C1CC1 (centres undefined) , thanks.
Output: -6.09

Input: Need Percent Effect of NC[C@H]1CC[C@H](C(NC(=O)c2cccc(F)c2)c2ccccn2)CC1 (some centres undefined) , thanks.
Output: -0.28

Input: Need Percent Effect of "CC1CCN(CCNC(=O)C2CCN(S(N)(=O)=O)CC2)CC1" , thanks.
Output: 1.78

Input: Need Percent Effect of COCc1nc(C(=O)N2CCCC2c2c(C)nn(C)c2C)cs1 (centres undefined) , thanks.
Output: -5.87

Input: Need Percent Effect of CCC(OC)C(=O)N1CCc2nc(NC)nc(C(=O)N3CCCC3)c2C1 (centres undefined) , thanks.
Output: 1.34

Input: Need Percent Effect of Cc1ccc(C(O)CNCCn2cccn2)cc1C (centres undefined) , thanks.
Output: -5.54

Input: Need Percent Effect of "CC(C)(C)SCCCC(=O)N1CCC(Nc2cccnn2)CC1" , thanks.
Output: -1.23

Input: Need Percent Effect of c1cnc(N2CCC3(CCN(CC4CCOC4)C3)CC2)nc1 (centres undefined) , thanks.
Output: 8.74

Input: Need Percent Effect of Cc1cc(C2CCCN(C(=O)c3ccc(C)[nH]c3=O)C2)n[nH]1 (centres undefined) , thanks.
Output: -1

Input: Need Percent Effect of "Cc1cc(C)n(CC(=O)N2CCC(NS(C)(=O)=O)CC2)n1" , thanks.
Output: -2.75

Source of measurements: ChEMBL document CHEMBL3988442
